Value source: patent US20120122840A1

- System: DU4475
- assay.name: CellTiter Glo cell viability, 7 days
- Format: cell-based
- run.parameters: Homo sapiens, DU-4475, 168 h, breast, read-out: 7 day IC50
pIC50: −log10 of the molar value.
test.readout: pIC50

[[record]]
compound = "Cc1cc(N2CCOCC2)ccc1Nc1nc(NC2CCCCC2)c2nc[nH]c2n1"
measurement = 7.14


* * *

Target protein (sequence): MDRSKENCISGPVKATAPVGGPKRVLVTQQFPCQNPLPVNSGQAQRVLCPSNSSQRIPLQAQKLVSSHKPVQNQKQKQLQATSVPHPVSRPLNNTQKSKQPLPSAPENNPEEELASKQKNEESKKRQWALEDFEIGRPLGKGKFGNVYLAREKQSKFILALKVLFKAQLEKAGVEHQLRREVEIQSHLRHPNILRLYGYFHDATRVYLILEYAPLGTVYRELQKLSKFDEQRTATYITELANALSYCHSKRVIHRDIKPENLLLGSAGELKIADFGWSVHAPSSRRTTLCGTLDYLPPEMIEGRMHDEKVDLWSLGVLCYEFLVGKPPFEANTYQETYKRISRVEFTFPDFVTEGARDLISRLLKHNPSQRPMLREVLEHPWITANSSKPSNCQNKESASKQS
pIC50: −log10 of the molar value.
test.readout: pIC50

[[record]]
compound = "Cc1cc(OCCCN)ccc1Nc1nc(NC2CCCCC2)c2nc[nH]c2n1"
test_readout = "pIC50"
measurement = "< 5.30"

